The measured values listed here are drawn from the Human Domainome abundance scans (Beltran et al. 2025).

B1: POU domain, class 4, transcription factor 2, residues 256 to 327; numbered along this chain, Q12837 (parent)
chain: RDLEAFAERFKQRRIKLGVTQADVGSALANLKIPGVGSLSQSTICRFESLTLSHNNMIALKPILQAWLEEAE

Variants of: B1
PROTOCOL DESCRIPTION: abundance fitness (aPCA) (normalised: wild type 0, dead -1); higher = more abundant; growth selection in yeast, the domain comes from the species named
RUN PARAMETERS: Homo sapiens
Threshold check on abundance fitness: at or above -0.09 gives criterion met, strictly below gives criterion not met.

For orientation, consider the following solved cases.
{"columns": ["VARIANT ID", "LABEL CLASS"],
 "data": [
  ["R46W", "criterion not met"],
  ["M57K", "criterion not met"],
  ["N30W", "criterion not met"],
  ["A71P", "criterion not met"],
  ["P34Q", "criterion not met"]
]}

Hi, just wondering whether S42K shows abundance fitness of -0.09 or higher.
criterion met

Hi, just wondering whether S40G shows abundance fitness of -0.09 or higher.
criterion met

Hi, just wondering whether S42E shows abundance fitness of -0.09 or higher.
criterion met

Hi, just wondering whether A29S shows abundance fitness of -0.09 or higher.
criterion met
